I'd appreciate it if you could supply pIC50 values for the items below.
# Test system: Toxoplasma gondii
# Experimental Details: Antitoxoplasmic activity against Toxoplasma gondii PRU-betaGal tachyzoite after 96 hrs by colorimetric microtiter assay
# Type: functional, organism-based
pIC50: −log10 of the molar value.

Worked set:
- Cc1ccc(S(=O)(=O)Cc2nc(Nc3cccc(Cl)c3)c3cc([N+](=O)[O-])ccc3n2)cc1: < 4.60
- CCc1nc(N)nc(N)c1-c1ccc(Cl)cc1 [PYRIMETHAMINE]: 5.82
- Cc1ccc(S(=O)(=O)Cc2nc(Nc3cccc(C(F)(F)F)c3)c3cc([N+](=O)[O-])ccc3n2)cc1: < 4.60

In the following, a different molecule is considered.
Which pIC50 is listed for Cc1ccc(S(=O)(=O)Cc2nc(Nc3ccc(F)cc3)c3cc([N+](=O)[O-])ccc3n2)cc1 ?
< 4.60
